meta.source: paper PMC10786891

Target: T1, EsCas13d, nuclease-dead (Eubacterium siraeum, UniProt B0MS50, R295A;H300A;R849A;H854A)
T1 sequence: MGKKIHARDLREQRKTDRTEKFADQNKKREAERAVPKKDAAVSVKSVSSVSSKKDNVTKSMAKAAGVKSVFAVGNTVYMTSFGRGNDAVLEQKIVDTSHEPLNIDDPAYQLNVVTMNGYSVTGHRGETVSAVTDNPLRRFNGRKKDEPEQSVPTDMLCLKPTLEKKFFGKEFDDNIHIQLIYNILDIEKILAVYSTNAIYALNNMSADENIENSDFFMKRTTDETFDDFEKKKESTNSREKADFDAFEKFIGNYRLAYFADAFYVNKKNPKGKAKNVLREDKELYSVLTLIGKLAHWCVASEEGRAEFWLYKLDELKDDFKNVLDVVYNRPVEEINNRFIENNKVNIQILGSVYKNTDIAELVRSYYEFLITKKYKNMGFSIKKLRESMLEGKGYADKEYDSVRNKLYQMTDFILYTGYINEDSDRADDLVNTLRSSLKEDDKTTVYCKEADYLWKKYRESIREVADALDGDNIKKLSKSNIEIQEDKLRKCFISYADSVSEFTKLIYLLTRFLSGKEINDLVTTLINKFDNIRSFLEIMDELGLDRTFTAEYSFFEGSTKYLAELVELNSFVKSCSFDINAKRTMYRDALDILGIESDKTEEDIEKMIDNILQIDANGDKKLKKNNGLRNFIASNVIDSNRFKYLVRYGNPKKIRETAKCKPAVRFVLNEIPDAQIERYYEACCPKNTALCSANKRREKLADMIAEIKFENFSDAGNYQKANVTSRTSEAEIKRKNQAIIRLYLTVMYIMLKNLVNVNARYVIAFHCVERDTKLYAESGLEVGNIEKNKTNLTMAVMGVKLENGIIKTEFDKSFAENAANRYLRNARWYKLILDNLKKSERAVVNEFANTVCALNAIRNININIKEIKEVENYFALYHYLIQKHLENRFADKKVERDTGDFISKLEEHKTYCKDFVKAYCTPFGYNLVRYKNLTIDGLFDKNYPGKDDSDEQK
Assay: crRNA (strand 1, pre-loaded); Mg2+; 40 mM Tris-HCl pH 7.5, 150 mM NaCl, 6 mM MgCl2, 1 mM DTT, 0.1% Tween-20, 0.2 mg/ml BSA; 25 C; 10 min per concentration, then washed
Conditions: tags: His6-TwinStrep-SUMO cleaved; N-terminal SNAP kept (SNAP-Surface 488); label: 3' end held by stalled T7 RNA polymerase
Overview of reported pKd across a group of binders:
// pKd is dimensionless: -log10 of concentration (M)

// solved cases for pKd follow
1. target 1 insG 3' of 3,insC 3' of 1 (mixed) RNA 1: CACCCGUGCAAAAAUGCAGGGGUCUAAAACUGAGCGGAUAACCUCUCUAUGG RNA 2: GGGAAUGGAUCCACAUCUACGAAUUCGUACCAUAGAGAGGUUAUCCGCUGCACCCGAGAUCGGAAGAGCACACGU; 7.94
2. target 1 C6A,A16C (mixed) RNA 1: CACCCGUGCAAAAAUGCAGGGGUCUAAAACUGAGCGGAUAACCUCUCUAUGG RNA 2: GGGAAUGGAUCCACAUCUACGAAUUCGUACCAUAGCGAGGUUAUCAGCUCACCGAGAUCGGAAGAGCACACGU; 7.45

Now, please, on to the next binder.
Q: Requested field: pKd. Item: target 1 MT 5'PFS AAU 3'PFS UAG (mixed) RNA 1: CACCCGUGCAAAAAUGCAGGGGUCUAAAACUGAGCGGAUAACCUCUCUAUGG RNA 2: GGGAAUGGAUCCACAUCUACGAAUUCAAUCCAUAGAGAGGUUAUCCGCUCAUAGAGAUCGGAAGAGCACACGU
A: 7.38
